// values below are reported self-cleavage kobs at 10000 uM GlcN6P
B1: glmS ribozyme (parent)
chain: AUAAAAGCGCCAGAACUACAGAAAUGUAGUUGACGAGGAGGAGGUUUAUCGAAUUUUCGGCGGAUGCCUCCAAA

Variants of: B1
assay: self-cleavage kobs at 10000 uM GlcN6P; higher = faster cleavage; RNA array
condition.description: with glucosamine-6-phosphate
This sample holds only a part of the variants without activity.
reported.property: self-cleavage kobs at 10000 uM GlcN6P (s⁻¹)

variant.description | reported.property | unit.info | value.relation.sign | number
A52G C67U | self-cleavage kobs at 10000 uM GlcN6P | s⁻¹ | = | 0.000728
U30G A33G C71G | self-cleavage kobs at 10000 uM GlcN6P | s⁻¹ | < | 1e-05
U30G U31A | self-cleavage kobs at 10000 uM GlcN6P | s⁻¹ | = | 0.0137
U46A G59U | self-cleavage kobs at 10000 uM GlcN6P | s⁻¹ | < | 1e-05
A15C G35U A36G U65C C68A | self-cleavage kobs at 10000 uM GlcN6P | s⁻¹ | < | 1e-05
C70G | self-cleavage kobs at 10000 uM GlcN6P | s⁻¹ | = | 0.00395
A53C G66A | self-cleavage kobs at 10000 uM GlcN6P | s⁻¹ | = | 0.00374
C10U A52C U57G | self-cleavage kobs at 10000 uM GlcN6P | s⁻¹ | < | 1e-05
A42U G63U | self-cleavage kobs at 10000 uM GlcN6P | s⁻¹ | < | 1e-05
G43A G44U U55C | self-cleavage kobs at 10000 uM GlcN6P | s⁻¹ | < | 1e-05
U45A U54G | self-cleavage kobs at 10000 uM GlcN6P | s⁻¹ | = | 0.0501
G13C G29U | self-cleavage kobs at 10000 uM GlcN6P | s⁻¹ | = | 0.000125
U55G G66A | self-cleavage kobs at 10000 uM GlcN6P | s⁻¹ | = | 0.0124
A14U G66C | self-cleavage kobs at 10000 uM GlcN6P | s⁻¹ | = | 9.18e-05
A42G G51A | self-cleavage kobs at 10000 uM GlcN6P | s⁻¹ | < | 1e-05
G37A U49C | self-cleavage kobs at 10000 uM GlcN6P | s⁻¹ | < | 1e-05
A36G A48U | self-cleavage kobs at 10000 uM GlcN6P | s⁻¹ | < | 1e-05
C8U G9A | self-cleavage kobs at 10000 uM GlcN6P | s⁻¹ | < | 1e-05
A14G G43U | self-cleavage kobs at 10000 uM GlcN6P | s⁻¹ | = | 0.000131
G7A G41U | self-cleavage kobs at 10000 uM GlcN6P | s⁻¹ | < | 1e-05
U46C U55G | self-cleavage kobs at 10000 uM GlcN6P | s⁻¹ | = | 0.00271
G13A U45G | self-cleavage kobs at 10000 uM GlcN6P | s⁻¹ | = | 6.32e-05
